From: patent US20240383845A1

- Protocol summary: Dissolubility or compatibility (maximum dissolved concentration, HPLC)
- Type: physicochemical
- Condition details: 25° C., methyl methacrylate
Please mark 1 (yes) if the recorded Dissolubility, MMA is equal to or greater than 40 % by mass, and 0 (no) if it falls below.

Molecule | Class
CSc1cccc2c(SC)cccc12 [Example 15DMNDSH, 1,5-bis(methylthio)naphthalene] | 0 (no)
c1cc(SCC2CO2)c2cccc(SCC3CO3)c2c1 (stereo not drawn) [Example 15DGNDSH, 1,5-bis(glycidylthio)naphthalene] | 1 (yes)
C=C(C)C(=O)Sc1cccc2c(SC(=O)C(=C)C)cccc12 [Example 15NDSHMA, 1,5-bis(methacryloylthio)naphthalene] | 0 (no)
OCCSc1cccc2c(SCCO)cccc12 [Example 15DHENDSH, 1,5-bis(2-hydroxyethylthio)naphthalene] | 0 (no)
C=C(C)C(=O)Sc1ccc2c(SC(=O)C(=C)C)cccc2c1 [Example 16NDSHMA, 1,6-bis(methacryloylthio)naphthalene] | 1 (yes)
O=C(O)CSc1cccc2c(SCC(=O)O)cccc12 [Example 15DCNDSH, 1,5-bis(carboxymethylthio)naphthalene] | 0 (no)
C=CCSc1cccc2c(SCC=C)cccc12 [Example 15DANDSH, 1,5-bis(allylthio)naphthalene] | 0 (no)
C=CC(=O)Sc1cccc2c(SC(=O)C=C)cccc12 [Example 15NDSHA, 1,5-bis(acryloylthio)naphthalene] | 0 (no)
O=C(O)CSc1ccc2c(SCC(=O)O)cccc2c1 [Example 16DCNDSH, 1,6-bis(carboxymethylthio)naphthalene] | 0 (no)
C=CSc1cccc2c(SC=C)cccc12 [Example 15DVNDSH, 1,5-bis(vinylthio)naphthalene] | 1 (yes)
C=C(C)C(=O)Sc1ccc2ccc(SC(=O)C(=C)C)cc2c1 [Example 27NDSHMA, 2,7-bis(methacryloylthio)naphthalene] | 0 (no)
C=CC(=O)Sc1ccc2c(SC(=O)C=C)cccc2c1 [Example 16NDSHA, 1,6-bis(acryloylthio)naphthalene] | 1 (yes)
C=C(C)C(=O)Sc1ccc2cc(SC(=O)C(=C)C)ccc2c1 [Example 26NDSHMA, 2,6-bis(methacryloylthio)naphthalene] | 0 (no)
CSc1ccc2c(SC)cccc2c1 [Example 16DMNDSH, 1,6-bis(methylthio)naphthalene] | 1 (yes)
